Measured on: human serotonin (5-HT) reuptake transporter (Homo sapiens)
Construct: expressed in transfected cells
Assay remarks: functional uptake assay, human 5-HT reuptake transporter
Assay type: cell-based
Condition details: Example 4a, human reuptake transporter; read-out: 5-HT IC50
Measured IC50, listed per entry for reference.

{"columns": ["Molecule", "IC50"],
 "data": [
  ["NCC1CCCCC1(O)c1ccc(Cl)c(Cl)c1 (single isomer, unassigned)", "7 to 10 µM"],
  ["CN(C)C[C@H]1CCCC[C@]1(O)c1ccc(Cl)c(Cl)c1 (single isomer, unassigned)", "0.001 to 2 µM"],
  ["CNC[C@@H]1CCCC[C@@]1(O)c1ccc(Cl)c(Cl)c1", "> 10 µM"],
  ["NC[C@@H]1CCCC[C@@]1(O)c1ccc(Cl)c(Cl)c1 (relative stereo)", "> 10 µM"]
]}

---

Measured on: human dopamine (DA) reuptake transporter (Homo sapiens, UniProt Q01959)
Construct: expressed in transfected cells
Sequence (Q01959 whole entry): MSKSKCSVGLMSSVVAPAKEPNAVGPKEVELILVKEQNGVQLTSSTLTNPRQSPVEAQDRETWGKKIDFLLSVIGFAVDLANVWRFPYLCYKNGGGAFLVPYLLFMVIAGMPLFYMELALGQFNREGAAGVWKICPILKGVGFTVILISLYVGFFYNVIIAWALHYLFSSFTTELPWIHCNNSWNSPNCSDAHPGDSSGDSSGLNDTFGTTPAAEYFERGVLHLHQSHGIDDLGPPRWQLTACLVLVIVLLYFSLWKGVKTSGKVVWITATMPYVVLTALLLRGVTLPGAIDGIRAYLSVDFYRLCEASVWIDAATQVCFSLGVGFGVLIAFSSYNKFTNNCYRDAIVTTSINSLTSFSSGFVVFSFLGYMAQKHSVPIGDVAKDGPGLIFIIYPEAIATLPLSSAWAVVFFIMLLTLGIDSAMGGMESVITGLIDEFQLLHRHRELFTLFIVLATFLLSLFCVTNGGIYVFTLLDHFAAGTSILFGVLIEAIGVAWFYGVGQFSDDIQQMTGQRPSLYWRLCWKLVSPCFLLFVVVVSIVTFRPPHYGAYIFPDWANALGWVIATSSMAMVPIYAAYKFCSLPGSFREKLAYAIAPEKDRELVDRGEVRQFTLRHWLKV
Assay remarks: functional uptake assay, human DA reuptake transporter
Assay type: cell-based
Condition details: read-out: DA IC50 nM; Example 6 summary of selected in vitro data
# IC50 per record follows

{"columns": ["Line notation", "IC50"],
 "data": [
  ["CNC[C@@H]1CCCC[C@@]1(O)c1ccc(Cl)c(Cl)c1", "10 to 200 nM"],
  ["NC[C@]1(F)CCCC[C@@]1(O)c1ccc(Cl)c(Cl)c1", "10 to 200 nM"]
]}

---

Measured on: HERG current (Homo sapiens)
Sequence (Q12809 whole entry): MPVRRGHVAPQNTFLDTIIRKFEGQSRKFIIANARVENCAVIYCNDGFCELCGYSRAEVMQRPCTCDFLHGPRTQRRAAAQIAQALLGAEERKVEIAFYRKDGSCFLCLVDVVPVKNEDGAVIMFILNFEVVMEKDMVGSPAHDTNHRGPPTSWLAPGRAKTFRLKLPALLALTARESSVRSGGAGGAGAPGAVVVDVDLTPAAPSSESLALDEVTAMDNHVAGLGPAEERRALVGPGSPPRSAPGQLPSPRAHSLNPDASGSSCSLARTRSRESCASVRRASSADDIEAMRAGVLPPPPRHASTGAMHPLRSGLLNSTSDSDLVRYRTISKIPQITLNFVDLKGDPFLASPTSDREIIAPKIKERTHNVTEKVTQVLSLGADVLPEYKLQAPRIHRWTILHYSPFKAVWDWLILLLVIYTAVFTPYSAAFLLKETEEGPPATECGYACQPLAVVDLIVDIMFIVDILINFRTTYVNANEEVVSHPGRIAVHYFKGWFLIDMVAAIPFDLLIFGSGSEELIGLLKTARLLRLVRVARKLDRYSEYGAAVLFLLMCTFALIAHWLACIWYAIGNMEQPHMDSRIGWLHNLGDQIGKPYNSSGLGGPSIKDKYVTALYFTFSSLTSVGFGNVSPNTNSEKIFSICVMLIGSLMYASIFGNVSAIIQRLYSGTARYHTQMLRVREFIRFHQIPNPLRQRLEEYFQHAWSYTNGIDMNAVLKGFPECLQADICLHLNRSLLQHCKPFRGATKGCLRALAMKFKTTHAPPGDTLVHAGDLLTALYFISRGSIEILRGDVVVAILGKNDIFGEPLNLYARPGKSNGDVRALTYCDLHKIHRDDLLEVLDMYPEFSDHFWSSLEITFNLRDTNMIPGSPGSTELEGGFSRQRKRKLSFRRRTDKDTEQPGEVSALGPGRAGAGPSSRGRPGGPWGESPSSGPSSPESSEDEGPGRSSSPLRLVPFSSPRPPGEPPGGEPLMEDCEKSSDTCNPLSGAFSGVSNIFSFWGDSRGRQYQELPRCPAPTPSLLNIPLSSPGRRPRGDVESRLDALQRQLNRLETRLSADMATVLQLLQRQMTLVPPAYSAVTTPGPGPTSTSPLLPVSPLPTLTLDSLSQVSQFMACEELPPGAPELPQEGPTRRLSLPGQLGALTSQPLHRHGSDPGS
Assay remarks: inhibition of HERG current
Assay type: cell-based
pIC50: −log10 of the molar value.
Measurement label: pIC50

{"columns": ["Line notation", "Measurement label", "Result"],
 "data": [
  ["CNC[C@@H]1CCCC[C@@]1(O)c1ccc(Cl)c(Cl)c1", "pIC50", "4.82 to 6.00"]
]}

---

Items are presented alongside their recorded IC50.
Measured on: human serotonin (5-HT) reuptake transporter (Homo sapiens)
Construct: expressed in transfected cells
Assay remarks: functional uptake assay, human 5-HT reuptake transporter
Type: cell-based
Condition details: Example 6 summary of selected in vitro data; read-out: 5-HT IC50

{"columns": ["Compound", "IC50"],
 "data": [
  ["CN(C)C[C@@H]1CCCC[C@@]1(O)c1ccc(Cl)c(Cl)c1 (single isomer, unassigned)", "1 to 2000 nM"],
  ["CN(C)C[C@]1(C)CCCC[C@@]1(O)c1ccc(Cl)c(Cl)c1", "2000 to 7000 nM"],
  ["NC[C@@H]1CCCC[C@@]1(O)c1ccc(Cl)c(Cl)c1 (relative stereo)", "> 10000 nM"],
  ["CN(C)C[C@H]1CCCC[C@]1(O)c1ccc(Cl)c(Cl)c1 (single isomer, unassigned)", "1 to 2000 nM"],
  ["CNC[C@@H]1CCCC[C@@]1(O)c1ccc(Cl)c(Cl)c1", "> 10000 nM"],
  ["NCC1CCCCC1(O)c1ccc(Cl)c(Cl)c1 (single isomer, unassigned)", "7000 to 10000 nM"],
  ["CN(C)C[C@]1(F)CCCC[C@@]1(O)c1ccc(Cl)c(Cl)c1", "2000 to 7000 nM"],
  ["CNC[C@]1(C)CCCC[C@@]1(O)c1ccc(Cl)c(Cl)c1", "1 to 2000 nM"],
  ["C[C@@]1(CN)CCCC[C@@]1(O)c1ccc(Cl)c(Cl)c1", "2000 to 7000 nM"]
]}

---

Measured on: human norepinephrine (NE) reuptake transporter (Homo sapiens, UniProt P23975)
Construct: expressed in transfected cells
Sequence (P23975 whole entry): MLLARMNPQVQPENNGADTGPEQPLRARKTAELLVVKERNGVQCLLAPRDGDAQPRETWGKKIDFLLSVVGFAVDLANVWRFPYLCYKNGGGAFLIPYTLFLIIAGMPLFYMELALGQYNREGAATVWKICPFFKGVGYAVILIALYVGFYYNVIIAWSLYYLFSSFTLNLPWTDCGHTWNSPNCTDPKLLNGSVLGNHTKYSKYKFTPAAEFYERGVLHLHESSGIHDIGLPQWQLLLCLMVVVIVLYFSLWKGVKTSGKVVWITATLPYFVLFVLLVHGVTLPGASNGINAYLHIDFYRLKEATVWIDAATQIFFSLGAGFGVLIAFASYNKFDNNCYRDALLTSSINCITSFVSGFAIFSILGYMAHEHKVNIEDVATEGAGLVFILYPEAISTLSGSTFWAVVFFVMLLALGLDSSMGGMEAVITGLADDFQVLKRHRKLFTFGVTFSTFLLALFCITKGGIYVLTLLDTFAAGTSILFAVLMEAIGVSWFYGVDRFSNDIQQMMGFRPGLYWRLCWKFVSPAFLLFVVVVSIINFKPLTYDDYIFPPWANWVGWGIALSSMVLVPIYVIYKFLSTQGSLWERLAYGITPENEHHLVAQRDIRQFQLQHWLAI
Assay remarks: functional uptake assay, human NE reuptake transporter
Format: cell-based
Condition details: Example 6 summary of selected in vitro data; read-out: NE IC50

{"columns": ["Molecule", "IC50"],
 "data": [
  ["CN(C)C[C@]1(F)CCCC[C@@]1(O)c1ccc(Cl)c(Cl)c1 [Compound 23 A/B]", "> 5 µM"],
  ["CNC[C@]1(C)CCCC[C@@]1(O)c1ccc(Cl)c(Cl)c1 [Compound 16 A/B]", "> 5 µM"],
  ["NCC1CCCCC1(O)c1ccc(Cl)c(Cl)c1 (single isomer, unassigned) [Compound 8]", "> 5 µM"],
  ["CN(C)C[C@H]1CCCC[C@]1(O)c1ccc(Cl)c(Cl)c1 (single isomer, unassigned) [Compound 1]", "0.201 to 1 µM"],
  ["C[C@@]1(CN)CCCC[C@@]1(O)c1ccc(Cl)c(Cl)c1 [Compound 15 A/B]", "> 5 µM"],
  ["NC[C@]1(F)CCCC[C@@]1(O)c1ccc(Cl)c(Cl)c1 [Compound 21 A/B]", "> 5 µM"],
  ["NC[C@@H]1CCCC[C@@]1(O)c1ccc(Cl)c(Cl)c1 (relative stereo) [Compound 9]", "1 to 5 µM"],
  ["CN(C)C[C@]1(C)CCCC[C@@]1(O)c1ccc(Cl)c(Cl)c1 [Compound 17 A/B]", "> 5 µM"],
  ["CN(C)C[C@@H]1CCCC[C@@]1(O)c1ccc(Cl)c(Cl)c1 (single isomer, unassigned) [Compound 2]", "0.01 to 0.2 µM"]
]}

---

Measured on: human dopamine (DA) reuptake transporter (Homo sapiens, UniProt Q01959)
Construct: expressed in transfected cells
Assay remarks: functional uptake assay, human DA reuptake transporter
Type: cell-based
Condition details: Example 4a, human reuptake transporter; read-out: DA IC50
Measurement label: IC50

{"columns": ["Compound", "Measured on", "Measurement label", "Result"],
 "data": [
  ["CN(C)C[C@H]1CCCC[C@]1(O)c1ccc(Cl)c(Cl)c1 (single isomer, unassigned) [Compound 1]", "human dopamine (DA) reuptake transporter (Homo sapiens, UniProt Q01959)", "IC50", "0.201 to 1 µM"],
  ["NC[C@@H]1CCCC[C@@]1(O)c1ccc(Cl)c(Cl)c1 (relative stereo) [Compound 9]", "human dopamine (DA) reuptake transporter (Homo sapiens, UniProt Q01959)", "IC50", "0.01 to 0.2 µM"],
  ["NCC1CCCCC1(O)c1ccc(Cl)c(Cl)c1 (single isomer, unassigned) [Compound 8]", "human dopamine (DA) reuptake transporter (Homo sapiens, UniProt Q01959)", "IC50", "0.201 to 1 µM"]
]}

---

Measured on: human serotonin (5-HT) reuptake transporter (Homo sapiens, UniProt P31645)
Construct: expressed in transfected cells
Sequence (P31645 whole entry): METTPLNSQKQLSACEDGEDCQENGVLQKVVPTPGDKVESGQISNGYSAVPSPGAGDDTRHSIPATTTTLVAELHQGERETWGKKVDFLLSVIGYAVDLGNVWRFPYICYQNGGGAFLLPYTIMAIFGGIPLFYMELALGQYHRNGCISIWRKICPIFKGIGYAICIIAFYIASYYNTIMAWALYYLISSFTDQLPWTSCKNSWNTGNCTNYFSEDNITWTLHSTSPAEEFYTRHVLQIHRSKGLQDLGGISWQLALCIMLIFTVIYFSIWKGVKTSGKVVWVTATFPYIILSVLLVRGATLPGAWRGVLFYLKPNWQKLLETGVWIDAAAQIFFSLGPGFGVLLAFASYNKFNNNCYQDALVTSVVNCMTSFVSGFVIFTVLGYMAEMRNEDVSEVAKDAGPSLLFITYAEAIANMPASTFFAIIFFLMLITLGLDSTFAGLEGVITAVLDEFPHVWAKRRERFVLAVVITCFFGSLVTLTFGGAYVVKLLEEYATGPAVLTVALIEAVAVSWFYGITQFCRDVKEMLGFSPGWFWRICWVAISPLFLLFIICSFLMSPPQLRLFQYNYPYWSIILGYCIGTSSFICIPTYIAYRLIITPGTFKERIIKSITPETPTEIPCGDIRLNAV
Assay remarks: functional uptake assay, human 5-HT reuptake transporter
Type: cell-based
Condition details: 5-HT IC50 (nM), Example 4a, human reuptake transporter

{"columns": ["Compound", "IC50"],
 "data": [
  ["CN(C)C[C@@H]1CCCC[C@@]1(O)c1ccc(Cl)c(Cl)c1 (single isomer, unassigned)", "7000 to 10000 nM"]
]}

---

Measured on: human dopamine (DA) reuptake transporter (Homo sapiens)
Construct: expressed in transfected cells
Assay remarks: functional uptake assay, human DA reuptake transporter
Type: cell-based
Condition details: Example 6 summary of selected in vitro data; read-out: DA IC50
Measured IC50 by item

{"columns": ["Compound", "Measured on", "IC50"],
 "data": [
  ["NC[C@@H]1CCCC[C@@]1(O)c1ccc(Cl)c(Cl)c1 (relative stereo) [Compound 9]", "human dopamine (DA) reuptake transporter (Homo sapiens)", "0.01 to 0.2 µM"],
  ["CN(C)C[C@H]1CCCC[C@]1(O)c1ccc(Cl)c(Cl)c1 (single isomer, unassigned) [Compound 1]", "human dopamine (DA) reuptake transporter (Homo sapiens)", "0.201 to 1 µM"],
  ["CN(C)C[C@@H]1CCCC[C@@]1(O)c1ccc(Cl)c(Cl)c1 (single isomer, unassigned) [Compound 2]", "human dopamine (DA) reuptake transporter (Homo sapiens)", "0.01 to 0.2 µM"],
  ["CN(C)C[C@]1(F)CCCC[C@@]1(O)c1ccc(Cl)c(Cl)c1 [Compound 23 A/B]", "human dopamine (DA) reuptake transporter (Homo sapiens)", "0.201 to 1 µM"],
  ["NCC1CCCCC1(O)c1ccc(Cl)c(Cl)c1 (single isomer, unassigned) [Compound 8]", "human dopamine (DA) reuptake transporter (Homo sapiens)", "0.201 to 1 µM"],
  ["CN(C)C[C@]1(C)CCCC[C@@]1(O)c1ccc(Cl)c(Cl)c1 [Compound 17 A/B]", "human dopamine (DA) reuptake transporter (Homo sapiens)", "0.201 to 1 µM"],
  ["CNC[C@]1(C)CCCC[C@@]1(O)c1ccc(Cl)c(Cl)c1 [Compound 16 A/B]", "human dopamine (DA) reuptake transporter (Homo sapiens)", "0.01 to 0.2 µM"],
  ["C[C@@]1(CN)CCCC[C@@]1(O)c1ccc(Cl)c(Cl)c1 [Compound 15 A/B]", "human dopamine (DA) reuptake transporter (Homo sapiens)", "0.201 to 1 µM"]
]}

---

Reported half-life is given for each of the following compounds.
Assay remarks: human metabolic stability (HLM t1/2)
Type: in vitro ADME
Condition details: human liver microsomes

{"columns": ["Compound", "half-life"],
 "data": [
  ["CN(C)C[C@@H]1CCCC[C@@]1(O)c1ccc(Cl)c(Cl)c1 (single isomer, unassigned) [Compound 2]", "0.417 to 2.92 h"],
  ["CNC[C@@H]1CCCC[C@@]1(O)c1ccc(Cl)c(Cl)c1 [Compound 4]", "2.93 to 5.42 h"],
  ["CN(C)C[C@H]1CCCC[C@]1(O)c1ccc(Cl)c(Cl)c1 (single isomer, unassigned) [Compound 1]", "0.417 to 2.92 h"]
]}
